# Read-out: Potassium channel subfamily K member 1 (KCNK1), KCNK1 (gene 3775)
# testDescription: LTEA_HepaRG_KCNK1: Life Technologies and Expression Analysis (LTEA) Assay for Potassium channel subfamily K member 1 (KCNK1) using HepaRG (AID 2283511)
# condition: mRNA level, 48 h; actives raise or lower the signal
Active and inactive are the calls of the source. Rule for the calls: active = hit-call score of the fitted dose curve at least 0.9, where 1 is the maximum; inactive = score below 0.9.
Use one of these outcomes when replying: class 1 (active), class 0 (inactive)

input: What outcome does the record of this test show for COCCOCCOCCOC ?
output: class 0

input: Then CCOc1cccc(-n2cc(C(=O)N3CCN(c4cc(C(=O)O)c5ccccc5c4)CC3)nc2-c2ccc(C)cc2)c1 ?
output: class 0

input: Then Cc1[nH]cnc1C[C@H]1CCc2c(C)c3ccccc3n2C1=O ?
output: class 1

input: Then CC(=O)OC[C@H]1O[C@@](COC(C)=O)(O[C@H]2O[C@H](COC(C)=O)[C@@H](OC(C)=O)[C@H](OC(C)=O)[C@H]2OC(C)=O)[C@@H](OC(C)=O)[C@@H]1OC(C)=O ?
output: class 0

input: Then CCOCCO ?
output: class 0

input: Then CCOC(=O)c1ccc(C2CCC(NC[C@H](O)COc3ccc(O)c(NS(C)(=O)=O)c3)CC2)cc1 (stereo partly specified) ?
output: class 0

* * *

# testDescription: ACEA_ER_AUC_viability: ACEA Biosciences xCELLigence Real-Time Cell Analysis on Estrogen Receptor Agonism for Viability (AID 2283782);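 note: continuous compound exposure with impedance area under curve over 80 h; hit means loss of impedance signal meaning reduced cell growth or viability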
Inconclusive results are not listed. The source made the active and inactive calls. Rule for the calls: active = hit-call score of the fitted dose curve at least 0.9, where 1 is the maximum; inconclusive = response in the unintended direction; inactive = score below 0.9.
Use one of these outcomes when replying: YES (active), NO (inactive)

> print(dat)
                                   compound  label
1  CCC(C)(C)C(=O)O[C@H]1C[C@@H](C)C=C2C=C[C@H](C)[C@H](CC[C@@H]3C[C@@H](O)CC(=O)O3)[C@H]21    YES
2  COCCOc1cc2cc(C(=O)NC3CCN(C(C)C)CC3)n(CC(=O)Nc3ccc(Cl)cn3)c2cn1     NO
3                   Oc1ccc2c(c1)-c1ccccc1C2    YES
4  O=c1n(CC2CO2)c(=O)n(CC2CO2)c(=O)n1CC1CO1 (centres undefined)    YES

input: What outcome does the record of this test show for Cc1ccc(O)cc1 ?
output: NO

input: Then CCCCCCCCCCCCCCCO ?
output: NO

input: Then CC[C@H](C)C(=O)O[C@H]1C[C@@H](C)C=C2C=C[C@H](C)[C@H](CC[C@@H]3C[C@@H](O)CC(=O)O3)[C@H]21 ?
output: YES

input: Then CCCCC(CC)COC(=O)c1ccc(C(=O)OCC(CC)CCCC)cc1 (centres undefined) ?
output: YES

input: Then CC[C@H]1CC[C@H](NCc2cc3c(cc2OC)[C@H]2C[C@H]2C(=O)N3C)[C@H](c2ccccc2)N1 ?
output: YES

input: Then CC(C)=CCCC(C)CCO (centres undefined) ?
output: NO

input: Then CCc1cc(SCc2sc(-c3ccc(C(F)(F)F)cc3)nc2CN2CCN(c3ccc(OC)cc3)CC2)ccc1OCC(=O)O ?
output: YES

input: Then CCOc1cccc(-n2cc(C(=O)N3CCN(c4cc(C(=O)O)c5ccccc5c4)CC3)nc2-c2ccc(C)cc2)c1 ?
output: NO

input: Then O=P(OC(CCl)CCl)(OC(CCl)CCl)OC(CCl)CCl ?
output: NO

input: Then CC(C)c1cccc(C(C)C)c1N1C(=O)c2ccc(O)cc2C1=O ?
output: YES

input: Then Clc1nc(Cl)c(Cl)c(Cl)c1Cl ?
output: YES

input: Then On1ccccc1=S ?
output: YES

input: Then C[C@](N)(Cc1ccc(O)c(O)c1)C(=O)O ?
output: NO

input: Then CCCC(=O)OCC ?
output: NO

input: Then C1N2CN3CN1CN(C2)C3 ?
output: NO

input: Then CCNc1ccccc1 ?
output: NO

* * *

# Read-out: urokinase plasminogen activator (uPA), PLAU (gene 5328)
# testDescription: BSK_BE3C_uPA: BioMAP Diversity Plus: BE3C Assay for urokinase plasminogen activator (uPA) Biomarker Activity (AID 2283038);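 note: uPA protein level quantified by ELISA in cell cultures; uPA read one day after compound addition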
# condition: primary human bronchial epithelial cells; actives raise or lower the signal
Activity calls are given as the source filed them. The calls were made as follows: active = hit-call score of the fitted dose curve at least 0.9, where 1 is the maximum; inactive = score below 0.9.
Use one of these outcomes when replying: active, inactive

compound	label
O=C(NS(=O)(=O)/C=C/c1ccccc1)c1ccc(F)cc1Cl	inactive

input: What outcome does the record of this test show for Nc1nc2ncc(CNc3ccc(C(=O)N[C@@H](CCC(=O)O)C(=O)O)cc3)nc2c(=O)[nH]1 ?
output: inactive

input: Then CC(C)=CCC/C(C)=C\CO ?
output: inactive

input: Then COCCOCCOCCOC ?
output: inactive

input: Then COC(=O)c1ccccc1O ?
output: inactive

* * *

# Read-out: Matrix Metallopeptidase 1 (MMP1), MMP1 (gene 4312)
# testDescription: BSK_hDFCGF_MMP1: BioMAP Diversity Plus: hDFCGF Assay for Matrix Metallopeptidase 1 (MMP1) Biomarker Activity (AID 2283064)
# condition: primary human foreskin fibroblasts; actives raise or lower the signal
Activity calls are given as the source filed them. How the source made its calls: active means hit-call score of the fitted dose curve at least 0.9, where 1 is the maximum; inactive means score below 0.9.
Use one of these outcomes when replying: 1 (active), 0 (inactive)

> print(dat)
                                   compound  label
1  CCCN(C1CCN(C(=O)C2CCNCC2)CC1)[C@@H]1CCc2ccc(OC)cc2C1      0
2                              CCOCCOCCOCCO      0
3  CCN(C(=O)c1cc(C)cc(OC[C@H](C)Nc2ccncc2)c1)C(C)C      0
4                 O=C(O)c1cccc(Oc2ccccc2)c1      0
5  COc1ccc(/C=C/S(=O)(=O)NC(=O)c2ccc(C)cc2Cl)cc1      0
6  Fc1ccccc1[C@@H](F)COC1CCC(Nc2ncnc3[nH]ncc23)CC1 (some centres not stated)      0
7                        C1N2CN3CN1CN(C2)C3      0
8                      CC1=CC(=O)CC(C)(C)C1      0

input: What outcome does the record of this test show for CCOC(=O)COc1ccc2c(c1)CC(NCC(O)c1cccc(Cl)c1)CC2 (configuration not stated) ?
output: 1

input: Then Clc1nc(Cl)c(Cl)c(Cl)c1Cl ?
output: 0

input: Then C[C@](N)(Cc1ccc(O)c(O)c1)C(=O)O ?
output: 0

input: Then O=C(NS(=O)(=O)/C=C/c1ccccc1)c1ccc(F)cc1Cl ?
output: 0

* * *

# testedSystem: CCAAT/enhancer-binding protein beta (Homo sapiens)
# testDescription: ATG_C_EBP_CIS: Attagene CIS-FACTORIAL HepG2 Assay for human CCAAT/Enhancer Binding Protein (C/EBP) beta (AID 2282927)
# condition: HepG2 Attagene cis-factorial transcription factor reporter; actives raise or lower the signal
Activity calls are given as the source filed them. How the source made its calls: active means hit-call score of the fitted dose curve at least 0.9, where 1 is the maximum; inactive means score below 0.9.
Use one of these outcomes when replying: active, inactive

compound	label
Cn1c(=O)c2c(ncn2C)n(C)c1=O	inactive
COC(=O)c1ccccc1O	inactive
CCOC(=O)COc1ccc2c(c1)CC(NCC(O)c1cccc(Cl)c1)CC2 (stereo not given)	inactive
CC1(C)C(=O)N(Br)C(=O)N1Br	inactive
CC(C)=CCCC(C)CCO (stereo not given)	inactive
CCOCCOCCOCCO	inactive

input: What outcome does the record of this test show for Cn1cnc([N+](=O)[O-])c1Sc1ncnc2nc[nH]c12 ?
output: inactive

input: Then CCCCC(CC)COC(=O)CCCCCCCCC(=O)OCC(CC)CCCC (stereo not given) ?
output: inactive

input: Then CCn1nc(Cc2ccccc2)cc1C1CCN(C[C@H]2C[C@H](N(C)[C@@H](C(=O)O)C(C)C)C[C@@H]2c2cccc(F)c2)CC1 ?
output: inactive

input: Then CCOCCO ?
output: inactive

* * *

# testDescription: CEETOX_H295R_CORTIC: CeeTox H295R High-throughput Steroidogenesis Assay for Corticosterone (CORTIC) (AID 2283437);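 note: corticosterone secreted into medium quantified by mass spectrometry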
# condition: actives raise or lower the signal
Calls of active or inactive are those of the source. The calls were made as follows: active = hit-call score of the fitted dose curve at least 0.9, where 1 is the maximum; inactive = score below 0.9.
Use one of these outcomes when replying: 1.0 (active), 0.0 (inactive)

> print(dat)
                                   compound  label
1  CC[C@H](C)C(=O)O[C@H]1C[C@@H](C)C=C2C=C[C@H](C)[C@H](CC[C@@H]3C[C@@H](O)CC(=O)O3)[C@H]21    1.0
2                   Oc1ccc2c(c1)-c1ccccc1C2    1.0
3  Fc1ccccc1[C@@H](F)COC1CCC(Nc2ncnc3[nH]ncc23)CC1 (some centres undefined)    1.0
4  CCOC(=O)c1ccc(C2CCC(NC[C@H](O)COc3ccc(O)c(NS(C)(=O)=O)c3)CC2)cc1 (some centres undefined)    1.0
5                              Cc1ccc(O)cc1    0.0

Now let's try a different one.
input: What outcome does the record of this test show for Cc1ccc(N)cc1O ?
output: 0.0
